IC50 by entry:
Experiment: Inhibition of FIH (unknown origin) using HIF-1alpha CAD (D788 to L822 residues) as substrate
Set-up: species or system Homo sapiens

{"chemical-smiles": "COc1cccc(CN2CCC3(CC2)C(=O)N(c2ccc(-c4ccccc4)cc2)C(=O)N3c2ncccn2)n1", "IC50": "> 25 µM"}
{"chemical-smiles": "Cc1cccnc1CN1CCC2(CC1)C(=O)N(c1ccc(-c3ccccc3)cc1)C(=O)N2c1cc(C(=O)O)ccn1", "IC50": "> 25 µM"}
{"chemical-smiles": "O=C1N(c2ccc(-c3ccccc3)cc2)C(=O)C2(CCN(Cc3ccccc3O)CC2)N1c1ncccn1", "IC50": "> 25 µM"}
{"chemical-smiles": "COc1ccnc(N2C(=O)N(c3ccc(-c4ccccc4)cc3)C(=O)C23CCN(Cc2ncccc2C)CC3)n1", "IC50": "21.6 µM"}

[Q] Provide IC50 value for the following compound: Cc1cccnc1CN1CCC2(CC1)NC(=O)N(c1ccc(-c3ccccc3)cc1)C2=O
[A] > 25 µM

[Q] Provide IC50 value for the following compound: Cn1ccnc1CN1CCC2(CC1)C(=O)N(c1ccc(-c3ccccc3)cc1)C(=O)N2c1ncccn1
[A] > 25 µM

[Q] Provide IC50 value for the following compound: Cn1ccnc1CN1CCC2(CC1)NC(=O)N(c1ccc(-c3ccccc3)cc1)C2=O
[A] > 25 µM

[Q] Provide IC50 value for the following compound: Cc1cccnc1CN1CCC2(CC1)C(=O)N(c1ccc(-c3ccccc3)cc1)C(=O)N2c1ncccn1
[A] > 25 µM

[Q] Provide IC50 value for the following compound: O=C1N(c2ccc(-c3ccccc3)cc2)C(=O)C2(CCN(Cc3ncc[nH]3)CC2)N1c1ncccn1
[A] > 25 µM

[Q] Provide IC50 value for the following compound: O=C1N(c2ccc(-c3ccccc3)cc2)C(=O)C2(CCN(Cc3cccs3)CC2)N1c1ncccn1
[A] > 25 µM

[Q] Provide IC50 value for the following compound: O=C1N(c2ccc(-c3ccccc3)cc2)C(=O)C2(CCNCC2)N1c1ncccn1
[A] > 25 µM
